Data provenance is ChEMBL document CHEMBL3098104.

Measured selectivity ratio of individual entries
# Protocol text: Selectivity index, ratio of CC50 for human MT4 cells to EC50 for HIV1 3B infected in human MT4 cells
# Type: toxicity, cell-based
# Reported conditions: read-out: Ratio CC50/EC50

Some molecules with recorded selectivity ratio:
Cc1cn([C@H]2C[C@H](N=[N+]=[N-])[C@@H](CO)O2)c(=O)[nH]c1=O | > 13100
COC(=O)c1ccc(CN2CCC(Nc3cc(Oc4c(C)cc(C)cc4C)ccc3[N+](=O)[O-])CC2)cc1 | > 246
Cc1cc(C#N)cc(C)c1Oc1ccc([N+](=O)[O-])c(NC2CCN(Cc3ccncc3)CC2)c1 | 336
Cc1cc(C#N)cc(C)c1Oc1ccc(N)c(NC2CCN(Cc3ccc(S(N)(=O)=O)cc3)CC2)c1.Cl | 505
Cc1cc(C)c(Oc2ccc([N+](=O)[O-])c(NC3CCN(Cc4ccc(C(N)=O)cc4)CC3)c2)c(C)c1 | 457

In: I would be grateful if you could share the reported selectivity ratio for `Cc1cc(C#N)cc(C)c1Oc1ccc([N+](=O)[O-])c(NC2CCN(Cc3ccc(C(N)=O)cc3)CC2)c1` .
Out: 430

In: Lookup `Cc1cc(C)c(Oc2ccc([N+](=O)[O-])c(NC3CCN(Cc4ccc([N+](=O)[O-])cc4)CC3)c2)c(C)c1`
Out: 70

In: Lookup `Cc1cc(C#N)cc(C)c1Oc1ccc([N+](=O)[O-])c(NC2CCN(Cc3ccc(C(=O)O)cc3)CC2)c1`
Out: 159

In: Lookup `Cc1cc(C#N)cc(C)c1Oc1ccc([N+](=O)[O-])c(NC2CCN(Cc3ccccc3)CC2)c1`
Out: 4.4

In: Lookup `Cc1cc(C)c(Oc2ccc([N+](=O)[O-])c(NC3CCN(Cc4ccccc4)CC3)c2)c(C)c1`
Out: 37

In: Lookup `Cc1cc(C)c(Oc2ccc([N+](=O)[O-])c(NC3CCN(Cc4ccc(S(N)(=O)=O)cc4)CC3)c2)c(C)c1`
Out: 615

In: Lookup `CC(=O)c1ccc(CN2CCC(Nc3cc(Oc4c(C)cc(C#N)cc4C)ccc3[N+](=O)[O-])CC2)cc1`
Out: > 1630
